# assay_comment: Molar enthalpy of transition or fusion
# protocol_conditions: Crystal 1; DSC
The following compounds are shown together with reported Molar enthalpy of transition or fusion values.
Please reply with the bare figure in kcal/mol and do not write the unit itself.

Example compounds with recorded Molar enthalpy of transition or fusion:
{"compound": "CCCCCCCCCCCCCCCCCCCCCCCCCC [hexacosane]", "Molar enthalpy of transition or fusion (kcal/mol)": 13.2}
{"compound": "CCCCCCCCCCCCCCCCCCCCCCCCCCCCCCCC [dotriacontane]", "Molar enthalpy of transition or fusion (kcal/mol)": 18}

compound CCCCCCCCCCCCCCCCCCCCCCCC [tetracosane] , Molar enthalpy of transition or fusion observed: 12.2

compound CCCCCCCCCCCCCCCCCCCCCC [docosane] , Molar enthalpy of transition or fusion observed: 9.92

compound CCCCCCCCCCCCCCCCCCCCCCCCCCCCCC [triacontane] , Molar enthalpy of transition or fusion observed: 16.7

compound CCCCCCCCCCCCCCCCCCCCCCCCCCCC [octacosane] , Molar enthalpy of transition or fusion observed: 15.1

###

The following compounds are shown together with reported Molar enthalpy of transition or fusion values.
# assay_comment: Molar enthalpy of transition or fusion
# protocol_conditions: Crystal 2; DSC
Please reply with the bare figure in kcal/mol and do not write the unit itself.

{"smiles_code": "CCCCCCCCCCCCCCCCCCCCCCCCCCCC", "Molar enthalpy of transition or fusion [kcal/mol]": 8.39}
{"smiles_code": "CCCCCCCCCCCCCCCCCCCCCCCCCCCCCCCC", "Molar enthalpy of transition or fusion [kcal/mol]": 9.3}
{"smiles_code": "CCCCCCCCCCCCCCCCCCCCCCCC", "Molar enthalpy of transition or fusion [kcal/mol]": 7.41}
{"smiles_code": "CCCCCCCCCCCCCCCCCCCCCC", "Molar enthalpy of transition or fusion [kcal/mol]": 6.92}

compound CCCCCCCCCCCCCCCCCCCCCCCCCCCCCC , Molar enthalpy of transition or fusion observed: 9.03

compound CCCCCCCCCCCCCCCCCCCCCCCCCC , Molar enthalpy of transition or fusion observed: 7.37

###

# protocol_conditions: 348 K; 101.33 kPa; Liquid; Modified transient plane source method
readout_kind: thermal conductivity (W/m/K)
Please reply with the bare figure in W/m/K and do not write the unit itself.

{"smiles_code": "CCCCCCCCCCCCCCCCCCCCCCCC", "thermal conductivity (W/m/K)": 0.146}

molecule CCCCCCCCCCCCCCCCCCCCCCCCCC , thermal conductivity observed: 0.148

molecule CCCCCCCCCCCCCCCCCCCCCCCCCCCCCCCC , thermal conductivity observed: 0.152

molecule CCCCCCCCCCCCCCCCCCCCCCCCCCCC , thermal conductivity observed: 0.149

molecule CCCCCCCCCCCCCCCCCCCCCCCCCCCCCC , thermal conductivity observed: 0.152

###

# protocol_conditions: 343.1 K; 101.33 kPa; Liquid; Modified transient plane source method
readout_kind: thermal conductivity (W/m/K)
Please reply with the bare figure in W/m/K and do not write the unit itself.

{"smiles_code": "CCCCCCCCCCCCCCCCCCCCCCCCCCCCCC", "result_value": 0.153}
{"smiles_code": "CCCCCCCCCCCCCCCCCCCCCCCCCC", "result_value": 0.149}

compound CCCCCCCCCCCCCCCCCCCCCCCC , thermal conductivity observed: 0.146

compound CCCCCCCCCCCCCCCCCCCCCCCCCCCC , thermal conductivity observed: 0.151

###

# protocol_conditions: Crystal 1; DTA
The following molecules are shown together with reported Normal melting temperature values.
Please reply with the bare figure in °C and do not write the unit itself.

{"molecule": "CCCCCCCCCCCCCCCCCCCCCCCCCCCCCCCC [dotriacontane]", "Normal melting temperature [°C]": 69}
{"molecule": "CCCCCCCCCCCCCCCCCCCCCC [docosane]", "Normal melting temperature [°C]": 43.5}

molecule CCCCCCCCCCCCCCCCCCCCCCCCCCCCCC [triacontane] , Normal melting temperature observed: 64.0

molecule CCCCCCCCCCCCCCCCCCCCCCCCCCCC [octacosane] , Normal melting temperature observed: 60.2

molecule CCCCCCCCCCCCCCCCCCCCCCCCCC [hexacosane] , Normal melting temperature observed: 55.7

molecule CCCCCCCCCCCCCCCCCCCCCCCC [tetracosane] , Normal melting temperature observed: 50.0

###

# protocol_conditions: Crystal 2; DSC
readout_kind: Triple point temperature (K)
Please reply with the bare figure in K and do not write the unit itself.

Example compounds with recorded Triple point temperature:
{"smiles_code": "CCCCCCCCCCCCCCCCCCCCCCCCCCCCCC", "Triple point temperature, K": 334.2}
{"smiles_code": "CCCCCCCCCCCCCCCCCCCCCC", "Triple point temperature, K": 315.6}
{"smiles_code": "CCCCCCCCCCCCCCCCCCCCCCCCCCCC", "Triple point temperature, K": 330.4}
{"smiles_code": "CCCCCCCCCCCCCCCCCCCCCCCCCCCCCCCC", "Triple point temperature, K": 338.1}

compound CCCCCCCCCCCCCCCCCCCCCCCC , Triple point temperature observed: 320.8

compound CCCCCCCCCCCCCCCCCCCCCCCCCC , Triple point temperature observed: 325.7
